Record form. Attribute: solubility in G1/S (log2). Fill in for each entry.
- Test system: HeLa Kyoto
- test method notes: solubility in G1/S (NP-40 vs SDS abundance) (log2 ratio); higher = more soluble
- assay conditions: cell cycle stage: G1/S
Please reply with the value in numeric form only.

Tell me the measured solubility in G1/S (log2) of MEGGFGSDFGGSGSGKLDPGLIMEQVKVQIAVANAQELLQRMTDKCFRKCIGKPGGSLDNSEQKCIAMCMDRYMDAWNTVSRAYNSRLQRERANM [TIMM13] , please.
-0.594

For MFVPCGESAPDLAGFTLLMPAVSVGNVGQLAMDLIISTLNMSKIGYFYTDCLVPMVGNNPYATTEGNSTELSINAEVYSLPSRKLVALQLRSIFIKYKSKPFCEKLLSWVKSSGCARVIVLSSSHSYQRNDLQLRSTPFRYLLTPSMQKSVQNKIKSLNWEEMEKSRCIPEIDDSEFCIRIPGGGITKTLYDESCSKEIQMAVLLKFVSEGDNIPDALGLVEYLNEWLQILKPLSDDPTVSASRWKIPSSWRLLFGSGLPPALF [PSMG2] then?
0.264

Same read-out for MAAPVLLRVSVPRWERVARYAVCAAGILLSIYAYHVEREKERDPEHRALCDLGPWVKCSAALASRWGRGFGLLGSIFGKDGVLNQPNSVFGLIFYILQLLLGMTASAVAALILMTSSIMSVVGSLYLAYILYFVLKEFCIICIVTYVLNFLLLIINYKRLVYLNEAWKRQLQPKQD [VKORC1L1] ?
-0.56

Quick one: `ARFGEF1`
-0.319

Okay, and MGPLPRTVELFYDVLSPYSWLGFEILCRYQNIWNINLQLRPSLITGIMKDSGNKPPGLLPRKGLYMANDLKLLRHHLQIPIHFPKDFLSVMLEKGSLSAMRFLTAVNLEHPEMLEKASRELWMRVWSRNEDITEPQSILAAAEKAGMSAEQAQGLLEKIATPKVKNQLKETTEAACRYGAFGLPITVAHVDGQTHMLFGSDRMELLAHLLGEKWMGPIPPAVNARL [GSTK1] ?
0.121

---

- Tested on: HeLa Kyoto
- test method notes: solubility in G1/S (NP-40 vs SDS abundance) (log2 ratio); higher = more soluble
- assay conditions: cell cycle stage: G1/S
measure name: solubility in G1/S (log2)
Reply with the value as a number alone.

Name the recorded solubility in G1/S (log2) for MSLEQRSLHCKPEEALEAQQEALGLVCVQAATSSSSPLVLGTLEEVPTAGSTDPPQSPQGASAFPTTINFTRQRQPSEGSSSREEEGPSTSCILESLFRAVITKKVADLVGFLLLKYRAREPVTKAEMLESVIKNYKHCFPEIFGKASESLQLVFGIDVKEADPTGHSYVLVTCLGLSYDGLLGDNQIMPKTGFLIIVLVMIAMEGGHAPEEEIWEELSVMEVYDGREHSAYGEPRKLLTQDLVQEKYLEYRQVPDSDPARYEFLWGPRALAETSYVKVLEYVIKVSARVRFFFPSLREAALREEEEGV [MAGEA1] .
-0.178

Then this sequence: MAIKSIASRLRGSRRFLSGFVAGAVVGAAGAGLAALQFFRSQGAEGALTGKQPDGSAEKAVLEQFGFPLTGTEARCYTNHALSYDQAKRVPRWVLEHISKSKIMGDADRKHCKFKPDPNIPPTFSAFNEDYVGSGWSRGHMAPAGNNKFSSKAMAETFYLSNIVPQDFDNNSGYWNRIEMYCRELTERFEDVWVVSGPLTLPQTRGDGKKIVSYQVIGEDNVAVPSHLYKVILARRSSVSTEPLALGAFVVPNEAIGFQPQLTEFQVSLQDLEKLSGLVFFPHLDRTSDIRNICSVDTCKLLDFQEFTLYLSTRKIEGARSVLRLEKIMENLKNAEIEPDDYFMSRYEKKLEELKAKEQSGTQIRKPS [EXOG]
0.21

# repeat for MLSLDFLDDVRRMNKRQLYYQVLNFGMIVSSALMIWKGLMVITGSESPIVVVLSGSMEPAFHRGDLLFLTNRVEDPIRVGEIVVFRIEGREIPIVHRVLKIHEKQNGHIKFLTKGDNNAVDDRGLYKQGQHWLEKKDVVGRARGFVPYIGIVTILMNDYPKFKYAVLFLLGLFVLVHRE [SEC11A]
-0.21

Item: MSGGKYVDSEGHLYTVPIREQGNIYKPNNKAMADELSEKQVYDAHTKEIDLVNRDPKHLNDDVVKIDFEDVIAEPEGTHSFDGIWKASFTTFTVTKYWFYRLLSALFGIPMALIWGIYFAILSFLHIWAVVPCIKSFLIEIQCISRVYSIYVHTVCDPLFEAVGKIFSNVRINLQKEI [CAV1]
-0.297

Also MAAAEPSPRRVGFVGAGRMAGAIAQGLIRAGKVEAQHILASAPTDRNLCHFQALGCRTTHSNQEVLQSCLLVIFATKPHVLPAVLAEVAPVVTTEHILVSVAAGVSLSTLEELLPPNTRVLRVLPNLPCVVQEGAIVMARGRHVGSSETKLLQHLLEACGRCEEVPEAYVDIHTGLSGSGVAFVCAFSEALAEGAVKMGMPSSLAHRIAAQTLLGTAKMLLHEGQHPAQLRSDVCTPGGTTIYGLHALEQGGLRAATMSAVEAATCRAKELSRK [PYCRL] , if possible.
0.155

Ok, now MGKGCKVVVCGLLSVGKTAILEQLLYGNHTIGMEDCETMEDVYMASVETDRGVKEQLHLYDTRGLQEGVELPKHYFSFADGFVLVYSVNNLESFQRVELLKKEIDKFKDKKEVAIVVLGNKIDLSEQRQVDAEVAQQWAKSEKVRLWEVTVTDRKTLIEPFTLLASKLSQPQSKSSFPLPGRKNKGNSNSEN [NKIRAS1]
0.0841

---

Would you kindly list melting temperature for each of these sequences?
- System: HeLa Kyoto
- test method notes: melting temperature (median over replicates), in situ; higher = more thermally stable
- assay conditions: cell cycle stage: mitosis
Lab book: enter the figure in °C, no units written.

What value of measured melting temperature is listed for MSEPIRVLVTGAAGQIAYSLLYSIGNGSVFGKDQPIILVLLDITPMMGVLDGVLMELQDCALPLLKDVIATDKEDVAFKDLDVAILVGSMPRREGMERKDLLKANVKIFKSQGAALDKYAKKSVKVIVVGNPANTNCLTASKSAPSIPKENFSCLTRLDHNRAKAQIALKLGVTANDVKNVIIWGNHSSTQYPDVNHAKVKLQGKEVGVYEALKDDSWLKGEFVTTVQQRGAAVIKARKLSSAMSAAKAICDHVRDIWFGTPEGEFVSMGVISDGNSYGVPDDLLYSFPVVIKNKTWKFVEGLPINDFSREKMDLTAKELTEEKESAFEFLSSA [MDH1] ?
56.8

Lookup MRRMWATQGLAVALALSVLPGSRALRPGDCEVCISYLGRFYQDLKDRDVTFSPATIENELIKFCREARGKENRLCYYIGATDDAATKIINEVSKPLAHHIPVEKICEKLKKKDSQICELKYDKQIDLSTVDLKKLRVKELKKILDDWGETCKGCAEKSDYIRKINELMPKYAPKAASARTDL [MANF]
52.7

Same thing, different sequence: MTGNAGEWCLMESDPGVFTELIKGFGCRGAQVEEIWSLEPENFEKLKPVHGLIFLFKWQPGEEPAGSVVQDSRLDTIFFAKQVINNACATQAIVSVLLNCTHQDVHLGETLSEFKEFSQSFDAAMKGLALSNSDVIRQVHNSFARQQMFEFDTKTSAKEEDAFHFVSYVPVNGRLYELDGLREGPIDLGACNQDDWISAVRPVIEKRIQKYSEGEIRFNLMAIVSDRKMIYEQKIAELQRQLAEEEPMDTDQGNSMLSAIQSEVAKNQMLIEEEVQKLKRYKIENIRRKHNYLPFIMELLKTLAEHQQLIPLVEKAKEKQNAKKAQETK [UCHL5]
48.9

And the next one, MTHSLVCPETVSRVSSVLNRNTRQFGKKHLFDQDEETCWNSDQGPSQWVTLEFPQLIRVSQLQIQFQGGFSSRRGCLEGSQGTQALHKIVDFYPEDNNSLQTFPIPAAEVDRLKVTFEDATDFFGRVVIYHLRVLGEKV [NR2C2AP] ?
52.8

What would you report for MASKLLRAVILGPPGSGKGTVCQRIAQNFGLQHLSSGHFLRENIKASTEVGEMAKQYIEKSLLVPDHVITRLMMSELENRRGQHWLLDGFPRTLGQAEALDKICEVDLVISLNIPFETLKDRLSRRWIHPPSGRVYNLDFNPPHVHGIDDVTGEPLVQQEDDKPEAVAARLRQYKDVAKPVIELYKSRGVLHQFSGTETNKIWPYVYTLFSNKITPIQSKEAY [AK4] ?
51.3

Repeat with MTLEAIRYSRGSLQILDQLLLPKQSRYEAVGSVHQAWEAIRAMKVRGAPAIALVGCLSLAVELQAGAGGPGLAALVAFVRDKLSFLVTARPTAVNMARAARDLADVAAREAEREGATEEAVRERVICCTEDMLEKDLRDNRSIGDLGARHLLERVAPSGGKVTVLTHCNTGALATAGYGTALGVIRSLHSLGRLEHAFCTETRPYNQGARLTAFELVYEQIPATLITDSMVAAAMAHRGVSAVVVGADRVVANGDTANKVGTYQLAIVAKHHGIPFYVAAPSSSCDLRLETGKEIIIEERPGQELTDVNGVRIAAPGIGVWNPAFDVTPHDLITGGIITELGVFAPEELRTALTTTISSRDGTLDGPQM [MRI1]
52.4
